Molecular target: PGFS (Homo sapiens, UniProt P42330, H5Q)
Construct: GST (glutathione S-transferase, pGEX 2T) (N, cleaved yes); made in house; host or cells: E. coli BL21DE3
Sequence (P42330 1-323 H5Q): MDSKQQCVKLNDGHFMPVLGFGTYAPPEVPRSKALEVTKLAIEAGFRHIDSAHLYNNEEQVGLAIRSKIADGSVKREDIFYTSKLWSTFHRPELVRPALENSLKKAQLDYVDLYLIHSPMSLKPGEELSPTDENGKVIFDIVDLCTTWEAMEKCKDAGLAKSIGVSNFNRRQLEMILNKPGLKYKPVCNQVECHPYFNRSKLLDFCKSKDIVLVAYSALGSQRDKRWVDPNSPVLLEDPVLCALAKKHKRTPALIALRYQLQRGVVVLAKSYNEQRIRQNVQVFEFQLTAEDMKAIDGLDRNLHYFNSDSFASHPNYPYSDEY
Test: PGFS test (maximum reaction rate, optical density at 340 nm)
Assay type: biochemical
Settings: protocol of Example 3
recordedMetric: IC50

> print(dat)
                                   compound                                  testedon    value
1  O=C(Cc1nnn(-c2ccccc2)n1)c1ccccc1 [Compound 1]  PGFS (Homo sapiens, UniProt P42330, H5Q)  > 75 µM
2  Cc1ccc(NC(=O)Cn2nnc(-c3cccc(C(F)(F)F)c3)n2)cc1 [Compound R29A]  PGFS (Homo sapiens, UniProt P42330, H5Q)  > 75 µM
3  COc1ccccc1NC(=O)Cn1nnc(-c2ccccc2)n1 [Compound 4]  PGFS (Homo sapiens, UniProt P42330, H5Q)  > 75 µM

Hey, just so you know, these numbers are from patent US7320967B2.
